- experimental details: qHTS assay to identify small molecule agonists of the AP-1 signaling pathway (AID 1159526)
- experimental parameters: ME-180 (cervical carcinoma) AP-1-bla reporter, beta-lactamase FRET ratio, 5 h; series mostly up to 76.8 µM
Records with an inconclusive call do not appear. The source made the active and inactive calls. Calls come from the whole dose curve.
property measured: outcome

{"compound": "CC1=CC2C3CC(C=C3C)C2C1 (stereo not drawn)", "recorded value": "inactive"}
{"compound": "O=CCCCC=O", "recorded value": "inactive"}
{"compound": "Nc1ccc(Cl)cc1Cl", "recorded value": "inactive"}
{"compound": "NC=O", "recorded value": "inactive"}
{"compound": "CN1C(C(=O)Nc2ccccn2)=C(O)c2ccccc2S1(=O)=O", "recorded value": "inactive"}

Request: For the compound CC(C(=O)O)c1cccc(C(=O)c2ccccc2)c1 (stereo not drawn) , what outcome is on record?
Result: inactive

Request: Value lookup for outcome; key = c1ccc2cc(Nc3ccc(Nc4ccc5ccccc5c4)cc3)ccc2c1
Result: inactive

Request: Please give the measured outcome for this compound: CC(C)=CCCC(C)CCO (stereo not drawn)
Result: inactive
